- METHOD_NOTES: Induction of tubulin polymerization at 0.1 uM by DAPI fluorescence method relative to control
READOUT_NAME: Activity (%)

a: C/C=C/C(=O)O[C@H]1C(=O)[C@]2(C)[C@@H](OC(=O)c3ccccc3)C[C@H]3OC[C@@]3(OC(C)=O)[C@H]2[C@H](OC(=O)c2ccccc2)[C@]2(O)C[C@H](OC(=O)[C@H](O)[C@@H](NC(=O)c3ccccc3)c3ccccc3)C(C)=C1C2(C)C
b: CCC(=O)O[C@H]1C(=O)[C@]2(C)[C@@H](OC(=O)CCl)C[C@H]3OC[C@@]3(OC(C)=O)[C@H]2[C@H](OC(=O)c2ccccc2)[C@]2(O)C[C@H](OC(=O)[C@H](O)[C@@H](NC(=O)c3ccccc3)c3ccccc3)C(C)=C1C2(C)C
INPUT: Problem: Given the entries a and b , determine which has the lower reported Activity. State the label of the item chosen.
OUTPUT: b
